Values from patent US9321764B2

molecular target: BRD4 (BDII_E352-M457) (Homo sapiens, UniProt O60885); construct: proliferation; Protocol; made in house; experiment: TR-FRET bromodomain binding assay, second bromodomain of BRD4; details: His-tagged BD2, 30 nM Alexa647 probe; TR-FRET protocol A-E given per row
pKi: −log10 of the molar value.
property: pKi

Below, each entry is followed by its recorded pKi result.
>  <compound>
Cn1cc(-c2cc(S(C)(=O)=O)ccc2OCCC23CC4CC(CC(C4)C2)C3)c2cc[nH]c(=O)c21

>  <pKi>
5.58

$$$$
>  <compound>
CCS(=O)(=O)c1ccc(Oc2ccc(C(F)(F)F)cc2)c(-c2cn(C)c3c(=O)[nH]ccc23)c1

>  <pKi>
6.86

$$$$
>  <compound>
Cn1cc(-c2cc(CS(N)(=O)=O)ccc2Oc2ccc(F)cc2F)c2cc[nH]c(=O)c21

>  <pKi>
7.96

$$$$
>  <compound>
CCS(=O)(=O)NCc1ccc(Oc2ccc(F)cc2F)c(-c2cn(C)c3c(=O)[nH]ccc23)c1

>  <pKi>
7.17

$$$$
>  <compound>
Cc1cc(CC(=O)Nc2ccc(Oc3ccc(F)cc3F)c(-c3cn(C)c4c(=O)[nH]ccc34)c2)nn1C

>  <pKi>
7.14

$$$$
>  <compound>
Cn1cc(-c2cc(S(N)(=O)=O)ccc2Oc2ccc(F)cc2F)c2cc[nH]c(=O)c21

>  <pKi>
7.21

$$$$
>  <compound>
Cn1cc(-c2cc(S(C)(=O)=O)ccc2OCCc2cccs2)c2cc[nH]c(=O)c21

>  <pKi>
7.29

$$$$
>  <compound>
Cn1cc(-c2cc(S(C)(=O)=O)ccc2OCC(F)(F)C(F)(F)F)c2cc[nH]c(=O)c21

>  <pKi>
7.24

$$$$
>  <compound>
Cc1c[nH]c(=O)c2c1c(-c1cc(S(C)(=O)=O)ccc1Oc1ccc(F)cc1F)cn2C

>  <pKi>
6.37

$$$$
>  <compound>
Cn1cc(-c2cc(CS(C)(=O)=O)cnc2Oc2ccc(F)cc2F)c2cc[nH]c(=O)c21

>  <pKi>
8.21

$$$$

I. Cn1cc(-c2cc(CS(=O)(=O)Nc3nccs3)ccc2Oc2ccc(F)cc2F)c2cc[nH]c(=O)c21
II. Cn1cc(-c2cc(NCc3ccc(OCc4ccccc4)cc3)ccc2Oc2ccc(F)cc2F)c2cc[nH]c(=O)c21
III. CCS(=O)(=O)c1ccc(Oc2ccc(OC)cc2Cl)c(-c2cn(C)c3c(=O)[nH]ccc23)c1
Prompt: List from greatest to least pKi. Give the labels in the order specified.
Response: III, I, II
(III: 7.77, I: 6.97, II: 5.96)

I. CN1CCN(Cc2ccc(Oc3ccc(F)cc3F)c(-c3cn(C)c4c(=O)[nH]ccc34)c2)CC1
II. Cn1cc(-c2cc(S(C)(=O)=O)ccc2NCC2CC2)c2cc[nH]c(=O)c21
III. Cn1cc(-c2cc(CNCCC3CCCC3)ccc2Oc2ccc(F)cc2F)c2cc[nH]c(=O)c21
IV. Cn1cc(-c2cc(NC(=O)C3CCN(c4ccccc4)C3=O)ccc2Oc2ccc(F)cc2F)c2cc[nH]c(=O)c21 (stereo not drawn)
V. CCS(=O)(=O)c1ccc(Oc2ccc(C)cc2Cl)c(-c2cn(C)c3c(=O)[nH]ccc23)c1
Prompt: Ordering criterion: pKi; begin with the maximum. # answer = labels listed in requested order
Response: V, II, I, IV, III
